Sourced from the supplement of paper PMC9170038

Form field: apparent KD of K4 kissing-loop reporter (one value per entry).
- Tested on: K4 kissing-loop RNA reporter
- ASSAY_METHOD_TEXT: apparent KD of K4 kissing-loop reporter; higher = weaker reporter binding
- CONDITIONS: Eterna round: R107; input ligand: theophylline 20 uM

SEQUENCE_ENTRY: AAGGUUGUGCAUGGGAGUGAUGUUCCCACGCAGGAUAUCGCUCACGCGAGAAGGGCGAGCACAACCGCUCAAGAAACUUGAGCAA [Omei KL FMN A SS C v2]
ASSAYED_TARGET: K4 kissing-loop RNA reporter
apparent KD of K4 kissing-loop reporter, nM: 106
--
SEQUENCE_ENTRY: GGAGGGAUCUCGGCCGCCACUCAUAAGAAAUGAACCUCAGAAAUAUAGUGAUGUUAUAUAAAGAAGAGGACCGGGAGAAAGGAGG [ExTryptoB.B]
ASSAYED_TARGET: K4 kissing-loop RNA reporter
apparent KD of K4 kissing-loop reporter, nM: 158
--
SEQUENCE_ENTRY: AGUACGGCAAACUUGCAACAAGCCGUACCACGAGGACCGGUACGGCCGCCACUCGAUAACUUGCAGUGAUGUUGCAAGUAAGAAU [(T)''-(K)'-(T)'-(T1)-(T2)-(K1)-(K2)_Design5]
ASSAYED_TARGET: K4 kissing-loop RNA reporter;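 further: bound reporter read as fluorescence of individual clusters on recovered sequencing chips by microscopy, with normalized cluster intensities fitted with a binding model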
apparent KD of K4 kissing-loop reporter, nM: 226

---

- System: MS2 coat protein
- ASSAY_METHOD_TEXT: apparent KD of MS2 coat protein; designed switch direction (-1 OFF switch, 1 ON switch): 1; higher = weaker reporter binding
- CONDITIONS: input ligand: FMN 200 uM
ASSAY_READOUT: apparent KD of MS2 coat protein (nM)

SEQUENCE_ENTRY: GGUAGGUUACUACCAAACAUGAGGAUCACCCAUGUUAAUGGGAAGGAUAUGGUACCUAUUUGGUACCAGAAGGUCCAAUUAAUU [JL Fiskers NG3ss - 2 mod 4] (Eterna round: R96, puzzle: Same State NG 3)
ASSAYED_TARGET: MS2 coat protein
OBSERVED: 70.4
//
SEQUENCE_ENTRY: AUUAUUAAUGCAGGAUAUGAUUAACAUGAGGAUCACCCAUGUGGUGUUGUGAGUAAGGAGAGUGAUCAGAAGGGCAUUUUUUAU [JMF's solution 15] (Eterna round: R96, puzzle: Same State NG 2)
ASSAYED_TARGET: MS2 coat protein
OBSERVED: 959
//
SEQUENCE_ENTRY: GCUCGACGUAUUGUUUACAUGAGGAUCACCCAUGUAGGUGCGGAGGAUAUCUACGUGUUUCAUGUAGAGAAGGUCGUGUCGAGC [SameState NG3 #91] (Eterna round: R96, puzzle: Same State NG 3)
ASSAYED_TARGET: MS2 coat protein
OBSERVED: 24.5
//
SEQUENCE_ENTRY: GUGGUCAGACAUGAGGAUCACCCAUGUGGAAUAAAUAACGGUGAGGAUAUCGAAUAUAGGAUAUACGAGAAGGCAUGAUUGGUG (Eterna round: R96, puzzle: Same State NG 3)
ASSAYED_TARGET: MS2 coat protein
OBSERVED: 165
//
SEQUENCE_ENTRY: GAGCCAGUCCGAGGAUAUUCAUAUUAAACAUGAGGAUCACCCAUGUAGGCUCAGAAAGAGCCUUGGGAGAAGGCGGACUGGCUC [Xeonanisa<<1] (Eterna round: R96, puzzle: Same State NG 2)
ASSAYED_TARGET: MS2 coat protein
OBSERVED: 16.7
